- Test system: Escherichia coli TOP10
- test-description: shrunken log2 fold change of peptide-encoding DNA abundance (4.5 h post-induction vs induction); higher = less antimicrobial activity (less host growth inhibition)
- cond: time post-induction: 4.5 h; library: site-saturation at positions 5, 18, 19, 20
quantity-kind: shrunken log2 fold change
Form rule: numeric answer, no unit written next to it.

Task: Item under review: RRIRDRPPRLPRPRPRPATQPRP . Reported shrunken log2 fold change?
Result: 0.52

Task: What would you report for RRIRRRPPRLPRPRPRPSPLPRP ?
Result: 0.479

Task: What would you report for RRIRWRPPRLPRPRPRPAYWPRP ?
Result: 0.473

Task: What would you report for RRIRQRPPRLPRPRPRPYIFPRP ?
Result: -0.547

Task: What would you report for RRIRTRPPRLPRPRPRPWMAPRP ?
Result: -0.295

Task: What would you report for RRIRWRPPRLPRPRPRPMGGPRP ?
Result: 0.116

Task: What would you report for RRIRQRPPRLPRPRPRPFLPPRP ?
Result: -0.0691

Task: What would you report for RRIRARPPRLPRPRPRPKYFPRP ?
Result: 0.0918

Task: What would you report for RRIRIRPPRLPRPRPRPMRWPRP ?
Result: -0.0141

Task: What would you report for RRIRMRPPRLPRPRPRPNYDPRP ?
Result: -0.149

Task: What would you report for RRIRRRPPRLPRPRPRPRHMPRP ?
Result: -0.0552

Task: What would you report for RRIRARPPRLPRPRPRPDKVPRP ?
Result: 0.0597

Task: What would you report for RRIRIRPPRLPRPRPRPLKYPRP ?
Result: -0.0551

Task: What would you report for RRIRIRPPRLPRPRPRPGMYPRP ?
Result: 0.123

Task: What would you report for RRIRLRPPRLPRPRPRPGHMPRP ?
Result: -0.236

Task: What would you report for RRIRVRPPRLPRPRPRPTQTPRP ?
Result: 0.0438

Task: What would you report for RRIRSRPPRLPRPRPRPENYPRP ?
Result: -0.127

Task: What would you report for RRIRFRPPRLPRPRPRPQLLPRP ?
Result: 0.0217

Task: What would you report for RRIRGRPPRLPRPRPRPLHSPRP ?
Result: 0.529

Task: What would you report for RRIRRRPPRLPRPRPRPNAQPRP ?
Result: 0.287

Task: What would you report for RRIRQRPPRLPRPRPRPGTQPRP ?
Result: -0.152

====

- Tested on: Escherichia coli TOP10;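 also: peptides expressed intracellularly from a pBAD plasmid library in pooled LB shake-flask culture, induced with 0.3% L-arabinose, DNA abundance read by NGS, three biological replicates, DESeq2 with apeglm shrinkage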
- test-description: shrunken log2 fold change of peptide-encoding DNA abundance (4.5 h post-induction vs induction); higher = less antimicrobial activity (less host growth inhibition)
- cond: time post-induction: 4.5 h; library: site-saturation at positions 5, 18, 19, 20
quantity-kind: shrunken log2 fold change

item-sequence: RRIRLRPPRLPRPRPRPEHGPRP
shrunken log2 fold change: 0.00489
--
item-sequence: RRIRYRPPRLPRPRPRPSECPRP
shrunken log2 fold change: -0.347
--
item-sequence: RRIRPRPPRLPRPRPRPQVVPRP
shrunken log2 fold change: -0.00675
--
item-sequence: RRIRMRPPRLPRPRPRPKRMPRP
shrunken log2 fold change: 1.06
--
item-sequence: RRIRIRPPRLPRPRPRPLSDPRP
shrunken log2 fold change: 0.0446
--
item-sequence: RRIRFRPPRLPRPRPRPIDCPRP
shrunken log2 fold change: -0.046
--
item-sequence: RRIRVRPPRLPRPRPRPYQCPRP
shrunken log2 fold change: -0.185
--
item-sequence: RRIRNRPPRLPRPRPRPFLRPRP
shrunken log2 fold change: -0.0221
--
item-sequence: RRIRERPPRLPRPRPRPICHPRP
shrunken log2 fold change: -0.187
--
item-sequence: RRIRSRPPRLPRPRPRPQVFPRP
shrunken log2 fold change: 0.0316

Task: Item under review: RRIRSRPPRLPRPRPRPALKPRP . Reported shrunken log2 fold change?
Result: 0.161

Task: What would you report for RRIRDRPPRLPRPRPRPQKGPRP ?
Result: 0.00967

Task: What would you report for RRIRNRPPRLPRPRPRPQDLPRP ?
Result: -0.11

Task: What would you report for RRIRGRPPRLPRPRPRPFNTPRP ?
Result: -0.309

Task: What would you report for RRIRARPPRLPRPRPRPEETPRP ?
Result: -0.03

Task: What would you report for RRIRERPPRLPRPRPRPYSTPRP ?
Result: -0.335
